Measured values drawn from ChEMBL document CHEMBL3885881 for this set.

Entries and their ALANINE AMINOTRANSFERASE values follow.
Species: Rattus norvegicus
PROTOCOL_TEXT: DrugMatrix - Regimen: Daily Repeat
Type: toxicity, organism-based, Sprague-Dawley
Design: regimen Daily Repeat, gender Male, age 6-8 weeks
DETAILS: in vivo, po, 0 mg/kg, 72 h, tissue Plasma, route oral GAVAGE, dose level Control, time 3 day, vehicle 100 % WATER
Give the value in u/L but do not write u/L after it.

Can you look up the measured ALANINE AMINOTRANSFERASE of `CCN(CC)CCOC(=O)C1(C2CCCCC2)CCCCC1` for me?
36.83

I am curious: what ALANINE AMINOTRANSFERASE value has been reported for CCN(CC)CCNC(=O)c1ccc(N)cc1 [PROCAINAMIDE] ?
41.17

Consider the compound CNC1=Nc2ccc(Cl)cc2C(c2ccccc2)=[N+]([O-])C1 [CHLORDIAZEPOXIDE] and give its measured ALANINE AMINOTRANSFERASE.
48.5

Name the recorded ALANINE AMINOTRANSFERASE for `NC12CC3CC(CC(C3)C1)C2` .
66
